These data points were gathered from patent US20210300908A1.

Catalogue of pEC50 readings, one per entry.
target: S1P1 receptor (Homo sapiens); test: S1P1 receptor agonistic activity (PathHunter cell strain, chemiluminescent signal detection); details: PathHunter cells, agonist mode, 37° C. 90-180 minutes
Sequence (P21453 whole entry): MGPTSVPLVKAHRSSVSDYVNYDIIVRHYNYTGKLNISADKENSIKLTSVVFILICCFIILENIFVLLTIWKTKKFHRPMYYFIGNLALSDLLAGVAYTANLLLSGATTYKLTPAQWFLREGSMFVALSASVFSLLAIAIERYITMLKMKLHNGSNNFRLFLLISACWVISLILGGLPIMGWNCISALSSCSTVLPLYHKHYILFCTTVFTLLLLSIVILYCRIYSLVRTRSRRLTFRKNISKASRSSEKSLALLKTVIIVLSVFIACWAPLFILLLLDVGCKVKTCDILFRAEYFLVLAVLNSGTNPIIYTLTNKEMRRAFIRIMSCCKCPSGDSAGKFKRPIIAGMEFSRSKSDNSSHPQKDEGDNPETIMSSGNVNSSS
pEC50: −log10 of the molar value.

Answered examples (5):
>  <Compound>
O=C1CC2Cc3c(-c4noc(-c5ccc(OCC6CC6)cc5)n4)cccc3C2N1CCO (stereo not shown) [Example 23]

>  <pEC50>
< 7.00

$$$$
>  <Compound>
CC(C)Oc1ccc(-c2nc(-c3cccc4c3CC3CC(=O)N(CCO)C43)no2)cc1OCCN(C)C (stereo not shown) [Example 41]

>  <pEC50>
< 7.00

$$$$
>  <Compound>
O=C1CC2Cc3c(-c4noc(-c5nc6ccccn6c5F)n4)cccc3C2N1CCO (stereo not shown) [Example 31]

>  <pEC50>
< 7.00

$$$$
>  <Compound>
COCCN1C(=O)CC2Cc3c(-c4noc(-c5ccc(OC(C)C)c(C#N)c5)n4)cccc3C21 (stereo not shown) [Example 12]

>  <pEC50>
> 8.00

$$$$
>  <Compound>
CC(C)Oc1ccc(-c2nc(-c3cccc4c3CC3CC(=O)N(CCS(C)(=O)=O)C43)no2)cc1C#N (stereo not shown) [Example 13]

>  <pEC50>
> 8.00

$$$$

Exam item: Look up pEC50: CN(C)CCOc1ccc(-c2nc(-c3cccc4c3CC3CC(=O)N(CCO)C43)no2)cc1 (stereo not shown) [Example 28]
Marked response: < 7.00

Exam item: For CC(C)Oc1ccc(-c2nnc(-c3cccc4c3C[C@@H]3CC(=O)N(CCO)[C@H]43)o2)cc1C#N [Example 51] then?
Marked response: > 8.00

Exam item: For N#Cc1cccc(-c2nc(-c3cccc4c3CC3CC(=O)N(CCO)C43)no2)c1 (stereo not shown) [Example 17] then?
Marked response: < 7.00

Exam item: For CC(C)Oc1ccc(-c2nc(-c3cccc4c3CC3CC(=O)N(CCO)C43)no2)cc1OC(F)F (stereo not shown) [Example 40] then?
Marked response: > 8.00

Exam item: For CC(C)c1ncc(-c2nc(-c3cccc4c3CC3CC(=O)N(CCO)C43)no2)s1 (stereo not shown) [Example 34] then?
Marked response: < 7.00

Exam item: For COc1ccc(-c2nc(-c3cccc4c3CC3CC(=O)N(CCO)C43)no2)cc1 (stereo not shown) [Example 18] then?
Marked response: < 7.00

Exam item: For O=C1CC2Cc3c(-c4noc(-c5cnc6ncccn56)n4)cccc3C2N1CCO (stereo not shown) [Example 35 Compound 35-2] then?
Marked response: < 7.00

Exam item: For CC(C)Oc1ccc(-c2nc(-c3cccc4c3CC3CCN(CCO)C43)no2)cc1C#N (stereo not shown) [Example 49] then?
Marked response: 7.00 to 8.00
